details: in 1,4-dioxane, 303.15 K
OBSERVED PROPERTY: solubility (mole fraction)

[[record]]
smiles_notation = "OC(Cn1cncn1)(Cn1cncn1)c1ccc(F)cc1F"
result = 0.0165


###

details: in n-butanol, 298.15 K
OBSERVED PROPERTY: solubility (mole fraction)

[[record]]
smiles_notation = "OC(Cn1cncn1)(Cn1cncn1)c1ccc(F)cc1F"
result = 0.0058


###

conditions: in n-propanol, 308.15 K
OBSERVED PROPERTY: solubility (mole fraction)

[[record]]
smiles_notation = "OC(Cn1cncn1)(Cn1cncn1)c1ccc(F)cc1F"
result = 0.0148


###

conditions: in THF, 298.15 K
OBSERVED PROPERTY: solubility (mole fraction)

[[record]]
smiles_notation = "OC(Cn1cncn1)(Cn1cncn1)c1ccc(F)cc1F"
result = 0.0121


###

conditions: in 1,4-dioxane, 323.15 K
OBSERVED PROPERTY: solubility (mole fraction)

[[record]]
smiles_notation = "OC(Cn1cncn1)(Cn1cncn1)c1ccc(F)cc1F"
result = 0.0304


###

conditions: in chloroform, 303.15 K
OBSERVED PROPERTY: solubility (mole fraction)

[[record]]
smiles_notation = "OC(Cn1cncn1)(Cn1cncn1)c1ccc(F)cc1F"
result = 0.0136


###

conditions: in ethanol, 303.15 K
OBSERVED PROPERTY: solubility (mole fraction)

[[record]]
smiles_notation = "OC(Cn1cncn1)(Cn1cncn1)c1ccc(F)cc1F"
result = 0.0147


###

settings: in chloroform, 308.15 K
OBSERVED PROPERTY: solubility (mole fraction)

[[record]]
smiles_notation = "OC(Cn1cncn1)(Cn1cncn1)c1ccc(F)cc1F"
result = 0.0139


###

conditions: in THF, 308.15 K
OBSERVED PROPERTY: solubility (mole fraction)

[[record]]
smiles_notation = "OC(Cn1cncn1)(Cn1cncn1)c1ccc(F)cc1F"
observed_property = "solubility (mole fraction)"
result = 0.0197


###

conditions: in n-propanol, 303.15 K
OBSERVED PROPERTY: solubility (mole fraction)

[[record]]
smiles_notation = "OC(Cn1cncn1)(Cn1cncn1)c1ccc(F)cc1F"
observed_property = "solubility (mole fraction)"
result = 0.0127


###

conditions: in THF, 303.15 K
OBSERVED PROPERTY: solubility (mole fraction)

[[record]]
smiles_notation = "OC(Cn1cncn1)(Cn1cncn1)c1ccc(F)cc1F"
result = 0.0155


###

settings: in methanol, 308.15 K
OBSERVED PROPERTY: solubility (mole fraction)

[[record]]
smiles_notation = "OC(Cn1cncn1)(Cn1cncn1)c1ccc(F)cc1F"
observed_property = "solubility (mole fraction)"
result = 0.0286


###

conditions: in chloroform, 318.15 K
OBSERVED PROPERTY: solubility (mole fraction)

[[record]]
smiles_notation = "OC(Cn1cncn1)(Cn1cncn1)c1ccc(F)cc1F"
result = 0.016


###

details: in 1,4-dioxane, 298.15 K
OBSERVED PROPERTY: solubility (mole fraction)

[[record]]
smiles_notation = "OC(Cn1cncn1)(Cn1cncn1)c1ccc(F)cc1F"
observed_property = "solubility (mole fraction)"
result = 0.0124

